Each record here notes measured pIC50.
Target: human CaV3.2 (Homo sapiens)
Sequence (O95180 whole entry): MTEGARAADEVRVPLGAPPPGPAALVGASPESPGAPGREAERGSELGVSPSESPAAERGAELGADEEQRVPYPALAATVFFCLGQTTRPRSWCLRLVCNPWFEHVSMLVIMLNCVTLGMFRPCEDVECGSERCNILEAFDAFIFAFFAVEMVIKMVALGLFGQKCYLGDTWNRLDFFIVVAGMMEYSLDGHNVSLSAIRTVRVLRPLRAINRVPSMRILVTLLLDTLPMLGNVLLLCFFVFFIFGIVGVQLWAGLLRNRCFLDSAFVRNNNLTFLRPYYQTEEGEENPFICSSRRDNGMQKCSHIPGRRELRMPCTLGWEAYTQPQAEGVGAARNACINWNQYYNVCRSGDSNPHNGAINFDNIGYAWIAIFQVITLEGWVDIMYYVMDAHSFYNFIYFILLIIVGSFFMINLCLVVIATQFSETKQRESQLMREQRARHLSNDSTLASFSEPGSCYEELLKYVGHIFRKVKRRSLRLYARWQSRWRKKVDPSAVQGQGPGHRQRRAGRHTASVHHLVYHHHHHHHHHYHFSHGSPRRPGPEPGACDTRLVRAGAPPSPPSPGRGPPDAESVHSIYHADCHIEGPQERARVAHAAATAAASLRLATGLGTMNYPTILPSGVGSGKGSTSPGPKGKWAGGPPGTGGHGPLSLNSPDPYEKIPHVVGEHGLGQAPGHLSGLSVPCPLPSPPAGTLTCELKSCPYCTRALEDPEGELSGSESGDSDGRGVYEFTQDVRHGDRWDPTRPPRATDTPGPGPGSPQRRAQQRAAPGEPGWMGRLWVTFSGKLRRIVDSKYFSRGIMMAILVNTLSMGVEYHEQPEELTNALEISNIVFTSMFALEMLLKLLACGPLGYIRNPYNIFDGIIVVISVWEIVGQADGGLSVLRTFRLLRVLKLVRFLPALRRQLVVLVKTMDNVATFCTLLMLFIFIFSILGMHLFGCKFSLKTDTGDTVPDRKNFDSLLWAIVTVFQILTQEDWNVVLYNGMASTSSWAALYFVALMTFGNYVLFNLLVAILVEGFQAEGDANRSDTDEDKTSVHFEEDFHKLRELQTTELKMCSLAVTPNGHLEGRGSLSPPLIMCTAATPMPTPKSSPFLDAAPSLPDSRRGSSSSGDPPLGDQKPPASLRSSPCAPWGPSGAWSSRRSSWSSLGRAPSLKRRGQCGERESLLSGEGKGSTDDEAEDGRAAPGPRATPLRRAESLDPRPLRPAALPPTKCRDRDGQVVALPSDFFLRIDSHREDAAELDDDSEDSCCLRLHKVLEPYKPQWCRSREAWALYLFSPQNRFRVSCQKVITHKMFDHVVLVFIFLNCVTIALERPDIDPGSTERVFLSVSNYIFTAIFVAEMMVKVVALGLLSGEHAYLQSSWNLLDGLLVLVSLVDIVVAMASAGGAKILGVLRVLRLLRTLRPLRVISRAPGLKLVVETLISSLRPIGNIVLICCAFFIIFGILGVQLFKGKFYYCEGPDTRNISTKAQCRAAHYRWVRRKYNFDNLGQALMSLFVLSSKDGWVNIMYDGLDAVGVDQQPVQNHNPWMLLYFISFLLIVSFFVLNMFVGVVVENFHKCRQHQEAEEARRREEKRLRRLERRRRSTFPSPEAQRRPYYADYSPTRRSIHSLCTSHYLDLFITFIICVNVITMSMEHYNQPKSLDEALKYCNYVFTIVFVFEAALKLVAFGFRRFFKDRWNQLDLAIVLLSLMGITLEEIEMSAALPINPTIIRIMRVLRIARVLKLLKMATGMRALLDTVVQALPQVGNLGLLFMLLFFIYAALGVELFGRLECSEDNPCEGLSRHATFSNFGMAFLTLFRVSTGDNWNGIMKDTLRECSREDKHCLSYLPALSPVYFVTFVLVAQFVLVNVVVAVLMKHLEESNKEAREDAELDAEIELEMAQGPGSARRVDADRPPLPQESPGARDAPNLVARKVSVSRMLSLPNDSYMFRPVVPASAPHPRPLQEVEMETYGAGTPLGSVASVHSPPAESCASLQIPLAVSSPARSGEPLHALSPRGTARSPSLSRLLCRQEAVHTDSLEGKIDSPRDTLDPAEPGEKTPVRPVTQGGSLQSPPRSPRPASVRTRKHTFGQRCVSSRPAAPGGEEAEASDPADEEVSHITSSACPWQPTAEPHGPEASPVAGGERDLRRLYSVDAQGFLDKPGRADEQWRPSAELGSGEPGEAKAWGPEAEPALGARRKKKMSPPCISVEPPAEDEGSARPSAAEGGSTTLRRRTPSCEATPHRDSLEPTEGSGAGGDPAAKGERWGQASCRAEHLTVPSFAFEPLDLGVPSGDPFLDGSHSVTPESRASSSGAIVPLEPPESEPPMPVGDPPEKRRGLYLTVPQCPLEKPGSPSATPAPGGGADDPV
Assay: Two-electrode voltage clamp on Xenopus oocytes expressing CaV3.2
Details: concentration-response; means ± SEM
Please keep in mind that pIC50 is minus log10 of the molar concentration; only the number is needed.

Here is how some molecules turned out for pIC50.
# MOLECULE, pIC50
measured = [
    ("CN(C)CCCOc1ccc(Nc2ccc(C(F)(F)F)cc2[N+](=O)[O-])cc1 [Compound 74]", 5.52),
    ("CN(C)CC(O)COc1ccc(Oc2ccc(C(F)(F)F)cc2[N+](=O)[O-])cc1 (stereo not shown) [Compound 99]", 5.64),
    ("CN(C)CC(O)COc1ccc(Nc2ccc(C(F)(F)F)cc2[N+](=O)[O-])cc1 (stereo not shown) [Compound 76]", 5.08),
]

Item under review: CN(C)CC(O)COc1ccc(Nc2ccc(C(F)(F)F)cc2)cc1 (stereo not shown) [Compound 79] . Reported pIC50? 5.15

====

Molecular target: UniProt:O95180
Experiment: Two-electrode voltage clamp on Xenopus oocytes expressing CaV3.2
Format: cell-based
Details: concentration-response fit
READOUT: Hill coefficient on CaV3.2
Please reply with the value in numeric form only.

Observed Hill coefficient on CaV3.2 on UniProt:O95180 for CN(C)CC(O)COc1ccc(Nc2ccc(C(F)(F)F)cc2[N+](=O)[O-])cc1 (stereo not shown) , please. 0.8

Observed Hill coefficient on CaV3.2 on UniProt:O95180 for CN(C)CC(O)COc1ccc(Nc2ccc(C(F)(F)F)cc2)cc1 (stereo not shown) , please. 1.0

Observed Hill coefficient on CaV3.2 on UniProt:O95180 for CN(C)CCCOc1ccc(Nc2ccc(C(F)(F)F)cc2[N+](=O)[O-])cc1 , please. 0.8

Observed Hill coefficient on CaV3.2 on UniProt:O95180 for CN(C)CC(O)COc1ccc(Oc2ccc(C(F)(F)F)cc2[N+](=O)[O-])cc1 (stereo not shown) , please. 1.4

====

Target: rat CaV3.1 channel (Rattus norvegicus)
Sequence (O54898 whole entry): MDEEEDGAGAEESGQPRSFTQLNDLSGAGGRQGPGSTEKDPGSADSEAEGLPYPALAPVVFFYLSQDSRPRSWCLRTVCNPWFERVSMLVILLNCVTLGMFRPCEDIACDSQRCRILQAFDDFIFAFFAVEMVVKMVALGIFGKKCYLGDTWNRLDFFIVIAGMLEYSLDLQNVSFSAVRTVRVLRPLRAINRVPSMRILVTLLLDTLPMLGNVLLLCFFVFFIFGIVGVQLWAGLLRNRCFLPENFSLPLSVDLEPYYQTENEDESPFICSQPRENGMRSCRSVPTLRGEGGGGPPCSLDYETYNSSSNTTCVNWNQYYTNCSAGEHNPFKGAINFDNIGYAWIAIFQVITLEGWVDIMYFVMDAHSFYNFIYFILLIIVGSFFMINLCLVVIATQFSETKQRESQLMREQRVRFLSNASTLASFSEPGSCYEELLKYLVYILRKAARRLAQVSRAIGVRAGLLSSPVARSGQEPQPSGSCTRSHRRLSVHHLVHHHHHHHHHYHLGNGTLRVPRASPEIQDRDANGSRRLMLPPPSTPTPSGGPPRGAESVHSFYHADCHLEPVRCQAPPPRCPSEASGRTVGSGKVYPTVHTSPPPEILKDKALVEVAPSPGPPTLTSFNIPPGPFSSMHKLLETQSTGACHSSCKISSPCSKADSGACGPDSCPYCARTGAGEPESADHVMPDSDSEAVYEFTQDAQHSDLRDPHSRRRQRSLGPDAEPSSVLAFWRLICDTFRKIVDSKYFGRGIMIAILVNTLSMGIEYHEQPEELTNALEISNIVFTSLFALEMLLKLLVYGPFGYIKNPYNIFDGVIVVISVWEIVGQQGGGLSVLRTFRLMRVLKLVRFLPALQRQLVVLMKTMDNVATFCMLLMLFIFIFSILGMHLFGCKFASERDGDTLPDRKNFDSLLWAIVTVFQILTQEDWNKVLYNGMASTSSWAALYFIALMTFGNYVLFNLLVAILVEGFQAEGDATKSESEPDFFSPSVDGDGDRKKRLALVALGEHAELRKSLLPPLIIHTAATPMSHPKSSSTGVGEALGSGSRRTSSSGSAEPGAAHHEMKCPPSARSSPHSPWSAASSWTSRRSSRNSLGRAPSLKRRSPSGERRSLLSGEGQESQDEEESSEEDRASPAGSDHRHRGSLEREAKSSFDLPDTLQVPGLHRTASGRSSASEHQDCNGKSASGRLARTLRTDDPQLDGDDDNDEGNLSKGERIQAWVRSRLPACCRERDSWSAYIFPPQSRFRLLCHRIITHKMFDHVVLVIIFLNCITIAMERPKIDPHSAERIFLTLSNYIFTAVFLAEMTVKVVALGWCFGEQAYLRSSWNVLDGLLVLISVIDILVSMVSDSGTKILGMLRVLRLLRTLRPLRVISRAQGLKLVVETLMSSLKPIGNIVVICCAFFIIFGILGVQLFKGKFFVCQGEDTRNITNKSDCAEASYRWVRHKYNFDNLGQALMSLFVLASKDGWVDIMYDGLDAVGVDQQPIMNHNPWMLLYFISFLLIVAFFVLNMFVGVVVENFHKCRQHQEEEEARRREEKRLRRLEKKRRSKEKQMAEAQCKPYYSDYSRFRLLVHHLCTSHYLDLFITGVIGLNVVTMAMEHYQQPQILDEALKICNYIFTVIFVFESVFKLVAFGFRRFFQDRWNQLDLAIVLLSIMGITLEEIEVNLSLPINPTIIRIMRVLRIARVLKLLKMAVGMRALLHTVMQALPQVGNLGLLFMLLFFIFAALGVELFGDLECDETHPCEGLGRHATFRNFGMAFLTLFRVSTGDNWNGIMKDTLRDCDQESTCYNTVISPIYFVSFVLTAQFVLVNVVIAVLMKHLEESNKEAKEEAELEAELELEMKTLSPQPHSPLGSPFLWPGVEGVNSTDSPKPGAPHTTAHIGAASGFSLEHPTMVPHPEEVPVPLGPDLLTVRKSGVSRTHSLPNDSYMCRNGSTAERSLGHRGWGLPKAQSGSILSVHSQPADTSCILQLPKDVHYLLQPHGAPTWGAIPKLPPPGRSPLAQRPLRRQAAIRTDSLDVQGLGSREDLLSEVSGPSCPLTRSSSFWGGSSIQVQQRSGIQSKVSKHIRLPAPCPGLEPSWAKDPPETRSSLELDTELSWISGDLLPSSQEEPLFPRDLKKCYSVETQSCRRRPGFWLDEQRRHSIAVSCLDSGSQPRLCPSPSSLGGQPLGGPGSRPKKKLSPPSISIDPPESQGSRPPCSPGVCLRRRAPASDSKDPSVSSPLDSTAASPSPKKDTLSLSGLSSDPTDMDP
Assay: Two-electrode voltage clamp on Xenopus oocytes expressing CaV3.1
Format: cell-based
Details: concentration-response fit
Procedure: In previous work, a library of 119 simplified analogs was synthesized with the aim of targeting KV10.1 [18, 23, 24, 25]. […] Two-electrode voltage clamp recordings were performed at room temperature (18–22 °C) by using a GeneClamp 500 amplifier (Molecular Devices, San Jose, CA, USA) controlled by a pClamp data acquisition system (Axon Instruments, Union City, CA, USA). Whole-cell currents from oocytes were recorded 5–10 days after mRNA injection. […]
READOUT: Hill coefficient on CaV3.1

# COMPOUND, Hill coefficient on CaV3.1
records = [
    ("CN(C)CC(O)COc1ccc(Nc2ccc(C(F)(F)F)cc2)cc1 (stereo not shown)", "0.8 ± 0.1"),
    ("CN(C)CC(O)COc1ccc(Nc2ccc(C(F)(F)F)cc2[N+](=O)[O-])cc1 (stereo not shown)", "0.9 ± 0.1"),
]

Item under review: CN(C)CCCOc1ccc(Nc2ccc(C(F)(F)F)cc2[N+](=O)[O-])cc1 . Reported Hill coefficient on CaV3.1? 0.8 ± 0.1

Item under review: CN(C)CC(O)COc1ccc(Oc2ccc(C(F)(F)F)cc2[N+](=O)[O-])cc1 (stereo not shown) . Reported Hill coefficient on CaV3.1? 1.6 ± 0.1
